# Target or system: T1, CHIM (Homo sapiens, UniProt P06731, A174T/A211G/A239V/A261S/A267P/C12H/D173N/E253A/E283V/F203L/F272R/F277P/F63I/H123Q/H61N/H9C/I100T/I112V/I113T/I13V/I230T/I80V/INS244IISP/K155N/K214E/L18V/L245P/L62R/N182G/N204S/N246D/N288K/P266S/P287A/Q16K/Q78L/R139H/R17E/R198M/R224N/R250L/R77S/S228P/S280H/T171V/T206K/T210A/T217I/T247S/T276I/V221A/V273I/V291P/V55A/W11L)
# T1 construct: CEACAM6 N-terminal part (fusion partner); 6xHis (C); made in house; host or cells: HEK293-based mammalian cell expression system
# T1 sequence (P06731 with tags, fused parts or gaps H9C/W11L/C12H/I13V/Q16K/R17E/L18V/V55A/H61N/L62R/F63I/R77S/Q78L/I80V/I100T/I112V/I113T/H123Q/R139H/K155N/T171V/D173N/A174T/N182G/R198M/F203L/N204S/T206K/T210A/A211G/K214E/T217I/V221A/R224N/S228P/I230T/A239V/INS244IISP/L245P/N246D/T247S/R250L/E253A/A261S/P266S/A267P/F272R/V273I/T276I/F277P/S280H/E283V/P287A/N288K/V291P): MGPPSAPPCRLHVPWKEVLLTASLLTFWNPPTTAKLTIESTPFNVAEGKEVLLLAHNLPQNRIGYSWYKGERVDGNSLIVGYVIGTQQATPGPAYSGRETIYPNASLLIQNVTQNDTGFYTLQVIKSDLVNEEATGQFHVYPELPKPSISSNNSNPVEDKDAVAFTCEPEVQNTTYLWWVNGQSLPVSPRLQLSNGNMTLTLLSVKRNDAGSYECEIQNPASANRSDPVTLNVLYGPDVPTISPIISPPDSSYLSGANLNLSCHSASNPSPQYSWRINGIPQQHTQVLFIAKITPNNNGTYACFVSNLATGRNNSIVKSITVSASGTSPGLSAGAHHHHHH
# Protocol details: SPR affinity comparison of affinity matured humanized BGA7592 variants on CHIM
# Type: binding
# Condition summary: Table 11, SPR to CHIM
Measurement name: Rmax (RU)
The response must be a number in RU with no trailing unit.

INSERT INTO results (molecule, value_observed) VALUES
  ('BGA0089 (antibody, human IgG1, V domains shown, Built on the BGA7592-1F-ph-M (BGA2433) template; human IgG1/kappa) VH: QVQLVQSGAEVKKPGASVKVSCKASGYIFTSYWLHWVRQAPGQGLEWIGYINPQTGYTNYAQKFQGRVTMTRDTSTSTVYMELSSLRSEDTAVYYCAREYGNYNYPLDYWGQGTLVTVSS VL: DIQMTQSPSSLSASVGDRVTITCRASENQYGYLAWYQQKPGKVPKLLIYNTKNLVEGVPSRFSGSGSGTDFTLTISSLQPEDVATYYCQHHLGTPYTFGQGTKVEIK', 59.4),
  ('BGA7592-1F-ph-M (BGA2433): affinity matured clone of BGA7592-1F, "(SEQ ID NO:96)", "improved affinities to huCEA surface protein"; template for further engineering (protein, Synthetic: BGA7592-1F-ph-M VL, template for further engineering) DIQMTQSPSSLSASVGDRVTITCRASENQYGYLAWYQQKPGKVPKLLIYNTKNLVEGVPSRFSGSGSGTDFTLTISSLQPEDVATYYCQHHLGTPYTFGQGTKVEIK', 97.2),
  ('BGA2107 (antibody, human IgG1, V domains shown, Built on the BGA7592-1F-ph-M (BGA2433) template; human IgG1/kappa) VH: QVQLVQSGAEVKKPGASVKVSCKASGYIFTSYWLHWVRQAPGQGLEWIGYINPNTGYTSYAQKFQGRVTMTRDTSTSTVYMELSSLRSEDTAVYYCAREYGNYNYPLDYWGQGTLVTVSS VL: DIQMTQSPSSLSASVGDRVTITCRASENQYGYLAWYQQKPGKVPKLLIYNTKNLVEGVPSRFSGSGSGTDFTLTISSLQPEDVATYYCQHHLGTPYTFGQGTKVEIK', 71.1);

Problem: Kindly indicate its recorded Rmax. Item: BGA8179 (antibody, human IgG1, V domains shown, Built on the BGA7592-1F-ph-M (BGA2433) template; human IgG1/kappa) VH: QVQLVQSGAEVKKPGASVKVSCKASGYIFTSYYLHWVRQAPGQGLEWIGYINPQTGYTSYAQKFQGRVTMTRDTSTSTVYMELSSLRSEDTAVYYCAREYGNYNYPLDYWGQGTLVTVSS VL: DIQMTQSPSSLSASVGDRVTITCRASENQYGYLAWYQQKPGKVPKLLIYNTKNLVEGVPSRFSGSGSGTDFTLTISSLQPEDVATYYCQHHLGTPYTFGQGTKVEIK
Solution: 129.1
